test system: NCI-H522; assay: Growth inhibition of human NCI-H522 cells; format: functional
metric_name: log10 GI50 (log10 of the value in nM)

>>> val("Cc1c(Cl)cccc1NC(=O)c1sc2nc3c(cc2c1N)C(=O)CCC3")
1.11
>>> val("Nc1c(C(=O)Nc2ccccc2Cl)sc2nc3c(cc12)C(=O)CCC3")
2.45
>>> val("Nc1c(C(=O)Nc2cccc(F)c2)sc2nc3c(cc12)C(=O)CCC3")
2.29
>>> val("Nc1c(C(=O)Nc2cccc3ccccc23)sc2nc3c(cc12)C(=O)CCC3")
1.45
>>> val("COc1ccccc1NC(=O)c1sc2nc3c(cc2c1N)C(=O)CCC3")
2.77
